- Target System: TcdB (Clostridioides difficile, UniProt P18177)
- Sequence (P18177 2-2366 limits assumed): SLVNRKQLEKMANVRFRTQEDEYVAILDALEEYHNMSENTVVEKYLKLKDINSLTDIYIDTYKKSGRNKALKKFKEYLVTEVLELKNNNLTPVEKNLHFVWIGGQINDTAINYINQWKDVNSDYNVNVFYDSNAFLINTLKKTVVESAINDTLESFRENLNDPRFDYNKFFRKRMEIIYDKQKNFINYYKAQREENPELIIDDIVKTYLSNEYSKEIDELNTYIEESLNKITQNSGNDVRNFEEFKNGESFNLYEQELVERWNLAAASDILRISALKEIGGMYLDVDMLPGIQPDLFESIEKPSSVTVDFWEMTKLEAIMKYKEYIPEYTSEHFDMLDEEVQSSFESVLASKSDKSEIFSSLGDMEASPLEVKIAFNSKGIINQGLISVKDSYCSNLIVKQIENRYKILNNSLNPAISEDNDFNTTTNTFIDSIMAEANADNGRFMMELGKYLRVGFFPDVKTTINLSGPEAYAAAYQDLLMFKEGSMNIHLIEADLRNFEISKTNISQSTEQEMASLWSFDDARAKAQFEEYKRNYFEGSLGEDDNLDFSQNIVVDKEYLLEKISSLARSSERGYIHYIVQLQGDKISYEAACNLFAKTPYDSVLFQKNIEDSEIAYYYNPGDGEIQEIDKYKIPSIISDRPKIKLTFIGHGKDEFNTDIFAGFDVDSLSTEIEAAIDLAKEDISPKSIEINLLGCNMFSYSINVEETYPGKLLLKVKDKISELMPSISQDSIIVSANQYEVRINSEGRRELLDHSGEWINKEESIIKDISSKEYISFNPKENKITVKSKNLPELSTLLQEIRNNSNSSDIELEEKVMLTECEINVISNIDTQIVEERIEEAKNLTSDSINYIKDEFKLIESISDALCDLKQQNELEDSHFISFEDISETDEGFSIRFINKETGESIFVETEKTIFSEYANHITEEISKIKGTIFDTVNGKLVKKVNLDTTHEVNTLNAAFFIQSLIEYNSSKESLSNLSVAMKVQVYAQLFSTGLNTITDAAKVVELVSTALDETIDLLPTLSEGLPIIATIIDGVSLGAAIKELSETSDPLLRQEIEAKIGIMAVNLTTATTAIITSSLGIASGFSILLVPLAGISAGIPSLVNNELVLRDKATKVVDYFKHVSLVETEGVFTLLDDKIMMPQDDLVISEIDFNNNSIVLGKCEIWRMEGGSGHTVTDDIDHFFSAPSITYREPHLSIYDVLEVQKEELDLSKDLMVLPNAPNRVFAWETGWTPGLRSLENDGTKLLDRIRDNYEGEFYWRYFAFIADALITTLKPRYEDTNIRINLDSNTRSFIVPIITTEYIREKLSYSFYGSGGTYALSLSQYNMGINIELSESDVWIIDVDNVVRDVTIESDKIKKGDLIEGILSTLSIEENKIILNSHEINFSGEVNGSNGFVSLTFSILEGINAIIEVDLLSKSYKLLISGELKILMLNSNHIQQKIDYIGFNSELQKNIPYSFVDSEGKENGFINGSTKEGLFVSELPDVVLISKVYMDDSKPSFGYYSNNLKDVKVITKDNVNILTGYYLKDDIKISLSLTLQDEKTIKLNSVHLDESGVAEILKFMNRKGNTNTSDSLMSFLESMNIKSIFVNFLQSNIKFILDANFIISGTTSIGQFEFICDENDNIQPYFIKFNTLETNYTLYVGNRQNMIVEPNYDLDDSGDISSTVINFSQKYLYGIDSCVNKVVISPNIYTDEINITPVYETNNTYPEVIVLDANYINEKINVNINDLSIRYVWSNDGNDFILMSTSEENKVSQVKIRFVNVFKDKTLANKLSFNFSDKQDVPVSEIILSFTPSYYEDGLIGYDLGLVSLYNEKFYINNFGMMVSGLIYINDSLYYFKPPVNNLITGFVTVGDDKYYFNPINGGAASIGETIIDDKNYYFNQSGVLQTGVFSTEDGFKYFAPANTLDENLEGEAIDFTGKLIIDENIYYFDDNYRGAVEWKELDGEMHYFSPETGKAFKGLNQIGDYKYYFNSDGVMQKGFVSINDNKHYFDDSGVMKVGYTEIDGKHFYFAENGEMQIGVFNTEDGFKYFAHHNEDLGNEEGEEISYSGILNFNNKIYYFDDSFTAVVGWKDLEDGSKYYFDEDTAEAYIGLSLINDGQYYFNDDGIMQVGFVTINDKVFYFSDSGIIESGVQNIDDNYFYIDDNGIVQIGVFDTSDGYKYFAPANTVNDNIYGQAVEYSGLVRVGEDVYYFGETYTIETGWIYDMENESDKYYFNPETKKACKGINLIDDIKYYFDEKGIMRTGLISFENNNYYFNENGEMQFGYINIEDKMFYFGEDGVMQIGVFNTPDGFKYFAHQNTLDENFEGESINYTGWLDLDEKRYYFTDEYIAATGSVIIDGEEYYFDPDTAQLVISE
- Method: cell-based
No end group written: not given here.
Property Measured: IC50 (µM)
Kindly answer with a numeric value in µM, unit omitted.

// IC50 lookup, key: KFINIFIHGNKRSIKAI [Angie 5]
46.3

Values from paper PMC12209146
